system: E. coli; test: Gram negative MIC protocol (OD600, LB, 24 h); details: Escherichia coli, read-out: MIC E. coli delta-TolC LB Media, E. coli delta-TolC, LB media, OD600

{"compound": "CC(CC1CCCCC1)NCc1ccccc1CS(=O)(=O)Nc1cccc(B(O)O)c1 (stereo not drawn)", "MIC": "< 1 µM"}
{"compound": "c1ccc(CNC2CC23CCCCC3)cc1 (stereo not drawn)", "MIC": "> 150 µM"}
{"compound": "c1ccc(CNCC2(c3ccc4c(c3)OCO4)CC2)cc1", "MIC": "> 150 µM"}
{"compound": "c1ccc(CNC2CCCCC2)cc1", "MIC": "> 150 µM"}
{"compound": "CNS(=O)(=O)Cc1ccccc1CNC(C)CC1CCCCC1 (stereo not drawn)", "MIC": "4 µM"}
{"compound": "COc1ccc(CCNCc2ccccc2)c2ccccc12", "MIC": "150 µM"}

* * *

test system: E. coli; assay: Gram negative MIC protocol (OD600, LB, 24 h); settings: Escherichia coli, read-out: MIC WT E. coli LB Media, wild-type E. coli, LB media, 24 h, OD600
Where a name gives a salt, the structure may show the parent alone.
Reported MIC values for the following molecules.

{"molecule": "COCCCCOc1ccccc1CNC(C)CC1CCCCC1 (centres unmarked)", "MIC": "> 150 µM"}
{"molecule": "CS(=O)(=O)Cc1ccccc1CNCCC1CCCCC1", "MIC": "> 150 µM"}
{"molecule": "CC(CC1CCCCC1)NCc1ccccc1OCCCN1CCOC1=O (centres unmarked)", "MIC": "150 µM"}
{"molecule": "CC(CC1CCCCC1)NCc1ccccc1OCC1(CO)COC1 (centres unmarked)", "MIC": "> 150 µM"}
{"molecule": "CC(CC1CCCCC1)NCc1ccccc1OCCC(N)=O (centres unmarked)", "MIC": "91 µM"}
{"molecule": "NCc1cccc(CNCCC2CCCCC2)c1", "MIC": "> 150 µM"}
{"molecule": "COC(=O)c1ccoc1COc1ccccc1CNC(C)CC1CCCCC1 (centres unmarked)", "MIC": "> 150 µM"}
{"molecule": "FC1(F)CCC(CCNCc2ccccc2)CC1 [B212, hydrochloride]", "MIC": "> 300 µM"}
{"molecule": "COCC(C)NC(=O)NC(=O)COc1ccccc1CNC(C)CC1CCCCC1 (centres unmarked)", "MIC": "> 150 µM"}
{"molecule": "CC(CC1CCCCC1)NCc1ccccc1OC1CC2CCC1CC2 (centres unmarked)", "MIC": "> 150 µM"}
{"molecule": "c1cc(CNCCC2CCCCC2)c2c(c1)OCO2", "MIC": "> 150 µM"}
{"molecule": "c1cncc(-c2ccccc2CNCCC2CCCCC2)c1 [B231, hydrochloride]", "MIC": "300 µM"}
{"molecule": "CC(CC1CCCCC1)NCc1ccccc1OCC1CN(C2CC2)C(=O)O1 (centres unmarked)", "MIC": "150 µM"}
{"molecule": "COCCOc1ccccc1CNC(C)CC1CCCCC1 (centres unmarked)", "MIC": "> 150 µM"}
{"molecule": "CC(CC1CCCCC1)NCc1ccccc1OCc1ccccc1Cl (centres unmarked)", "MIC": "55 µM"}
{"molecule": "COCCOCCOc1ccccc1CNC(C)CC1CCCCC1 (centres unmarked)", "MIC": "> 150 µM"}
{"molecule": "CC(=O)Oc1ccccc1CNCCC1CCCCC1", "MIC": "> 150 µM"}
{"molecule": "Ic1cccc(CNCCC2CCCCC2)c1", "MIC": "> 150 µM"}
{"molecule": "COC(=O)COc1ccccc1CNC(C)CC1CCCCC1 (centres unmarked)", "MIC": "150 µM"}
{"molecule": "CC(CC1CCCCC1)NCc1ccccc1OCC(=O)N1CCCC1 (centres unmarked)", "MIC": "> 150 µM"}
{"molecule": "Clc1cccc(CNCCC2CCCCC2)c1", "MIC": "> 150 µM"}
{"molecule": "CC(CC1CCCCC1)NCc1ccccc1OCC1CC1 (centres unmarked)", "MIC": "150 µM"}
{"molecule": "CC(CC1CCCCC1)NCc1ccccc1OCCN(C)C (centres unmarked)", "MIC": "91 µM"}
